target.of.assay: CDK2 CCNA2 (human) (UniProt P20248+P24941)
method: radiometric filter-binding kinase assay
measurement.setup: compound 1.0 µM
Recorded residual activity for the following compounds
A bare number is not enough; add the unit after it.

These solved cases illustrate the format of a correct answer.
[[record]]
compound = "Cc1cc(SCc2sc(-c3ccc(C(F)(F)F)cc3)nc2C)ccc1OCC(=O)O"
target_of_assay = "CDK2 CCNA2 (human) (UniProt P20248+P24941)"
property_label = "residual activity"
result = "87%"

[[record]]
compound = "NC(=O)Nc1ccc2c(c1)/C(=C/c1cc(-c3cccnc3)c[nH]1)C(=O)N2"
target_of_assay = "CDK2 CCNA2 (human) (UniProt P20248+P24941)"
property_label = "residual activity"
result = "14%"

[[record]]
compound = "Cc1cccc(-c2nn(C(=S)Nc3ccccc3)cc2-c2ccnc3ccccc23)n1"
target_of_assay = "CDK2 CCNA2 (human) (UniProt P20248+P24941)"
property_label = "residual activity"
result = "102%"

[[record]]
compound = "COc1cc2ncn(-c3cc(OCc4ccccc4S(C)(=O)=O)c(C#N)s3)c2cc1OC"
target_of_assay = "CDK2 CCNA2 (human) (UniProt P20248+P24941)"
property_label = "residual activity"
result = "100%"

[[record]]
compound = "CCCC(CCC)C(=O)O"
target_of_assay = "CDK2 CCNA2 (human) (UniProt P20248+P24941)"
property_label = "residual activity"
result = "90%"


The value of residual activity measured for the compound CCc1cncnc1N1CCN(Cc2nc3cc(C(F)(F)F)ccc3[nH]2)CC1 turned out to be 101%

The value of residual activity measured for the compound Oc1ccc2ccccc2c1SSc1c(O)ccc2ccccc12 turned out to be 101%

The value of residual activity measured for the compound O=C(N[C@@H](COc1ccc2[nH]c(=O)[nH]c2c1)c1ccccc1)c1cccn(Cc2ccc(F)c(F)c2)c1=O turned out to be 91%
